- method.notes: CCTE_Shafer_MEA_acute_spike_number: CCTE's Neural Acute Assay for Total Number of Spikes, Shafer Lab (AID 2284008)
- Experimental: CCTE_Shafer_MEA_acute assay is conducted using Axion Biosystems 48 well microelectrode array (MEA) plates and Maestro recording system. Each well of the MEA plate contains a grid of 16 microelectrodes embedded in the culture surface. Electrically active cells, such as neurons, can be cultured over the electrodes, and electrical activity in these cells can be recorded extracellularly. […] Data from the assay component CCTE_Shafer_MEA_acute_spike_number was analyzed into 1 assay endpoint. […]
Activity calls are given as the source filed them. Rule for the calls: active = hit-call score of the fitted dose curve at least 0.9, where 1 is the maximum; inactive = score below 0.9.
Select the matching outcome among active, inactive

Would you please look over these solved cases?
For CC(C)N1C(=O)N(c2ccccc2)CSC1=NC(C)(C)C , which call appears in the assay record?
active

Hello, I am checking results. What call was entered for CC1(C)C(C(=O)OC(C#N)c2cccc(Oc3ccccc3)c2)C1(C)C (stereo not given) ?
inactive

Could you check what this test reported for Cc1nc(N(C)C)nc(OC(=O)N(C)C)c1C ?
inactive

How did this test come out for Nc1c(Cl)c(F)nc(OCC(=O)O)c1Cl ?
inactive

Consider the record given below.
Hey, what did the test say about O=C(Nc1ccccc1-c1ccc(Cl)cc1)c1cccnc1Cl ?
inactive

---

- method.notes: APR_HepG2_P-H2AX_72hr: Apredica 72-hour HepG2 Assay for H2AX Phosphorylation (AID 2282916);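 note: phospho-histone H2A.x immunostain intensity per cell marking DNA damage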
- setup.conditions: imaging, actives raise or lower the signal
Calls of active or inactive are those of the source. The calls were made as follows: active = hit-call score of the fitted dose curve at least 0.9, where 1 is the maximum; inactive = score below 0.9.
Would you mind answering with one of these outcomes? 1.0 = active, 0.0 = inactive

Previously resolved entries follow.
How did this test come out for O=C1C2CC=CCC2C(=O)N1SC(Cl)(Cl)Cl (stereo not drawn) ?
1.0

Field: outcome | Entry: CC(C)C1(C)N=C(c2ncccc2C(=O)O)NC1=O (stereo not drawn)
0.0

Name the outcome recorded for COC(=O)c1c(C(F)F)nc(C(F)(F)F)c(C2=NCCS2)c1CC(C)C in the assay.
0.0

Each molecule tested received a call. Report the one for COCC(C)N(C(=O)CCl)c1c(C)csc1C (stereo not drawn) .
0.0

Which result was noted for this molecule in the test: CNC(=O)N(C)c1nnc(C(C)(C)C)s1
0.0

Continuing:
# lookup: test call for O=c1n(Cl)c(=O)n(Cl)c(=O)n1Cl
0.0

Returns: the outcome recorded for CC1(C)C(C(=O)OC(C#N)c2cccc(Oc3ccccc3)c2)C1(C)C (stereo not drawn) in this assay.
0.0

Outcome? CC(C)N1C(=O)c2ccccc2NS1(=O)=O
0.0

Please indicate how the test categorized CCN(CC)C(=O)C(C)Oc1cccc2ccccc12 (stereo not drawn) .
0.0

Look up the recorded call for N#Cc1c[nH]cc1-c1cccc2c1OC(F)(F)O2 in this test.
1.0

Outcome logged for O=P(O)(O)CCCl in this assay:
0.0

Outcome logged for CCSC(=O)N1CCCCCC1 in this assay:
0.0

Given COP(=S)(OC)SCn1nnc2ccccc2c1=O , state the outcome it received in this test.
0.0

---

- method.notes: ATG_CMV_CIS: Attagene CIS-FACTORIAL HepG2 Assay for human CMV (Internal Marker) (AID 2282928);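 note: endpoint acts as a background internal control marker rather than a target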
- setup.conditions: HepG2 CMV promoter reporter, transcription factor profiling; actives raise or lower the signal
- Procedure: ATG_CIS is a cell-based, multiplexed-readout assay that uses HepG2, a human liver cell line, with measurements taken at 24 hours after chemical dosing in a 24-well plate.ATG_CMV_CIS is one of 52 assay component(s) measured or calculated from the ATG_CIS assay. […] This assay endpoint, ATG_CMV_CIS, was analyzed with bidirectional fitting relative to DMSO as the negative control and baseline of activity. […]
Activity calls are given as the source filed them. Rule for the calls: active = hit-call score of the fitted dose curve at least 0.9, where 1 is the maximum; inactive = score below 0.9.
Thanks in advance; please answer with one of these: y (active), n (inactive)

Please let me know the test result on file for CCC(C)n1c(=O)[nH]c(C)c(Br)c1=O (stereo not given) .
n

What is the recorded call for this molecule in the test? Cn1c(-c2ccccc2)cc(-c2ccccc2)[n+]1C
n

Given CCOP(=O)(OCC)Oc1nc(Cl)c(Cl)cc1Cl , state the outcome it received in this test.
y

Hi team, can someone confirm the assay call for OC(c1ccc(Cl)cc1)(c1ccc(Cl)cc1)C(Cl)(Cl)Cl ?
n

Entry O=C(Nc1ccccc1-c1ccc(Cl)cc1)c1cccnc1Cl : call = ?
n

Could you please tell me the result logged for CN=C=S in this assay?
n

State the result this test recorded for COCc1cnc(C2=NC(C)(C(C)C)C(=O)N2)c(C(=O)O)c1 (stereo not given) .
n

Just curious, what result did Clc1cccc(C(Cl)(Cl)Cl)n1 get here?
n

Others:
Tell me the assay call for CCCCOCN(C(=O)CCl)c1c(CC)cccc1CC please.
n

Which outcome did this test record for the molecule Cc1c(COC(=O)[C@@H]2[C@H](/C=C(\Cl)C(F)(F)F)C2(C)C)cccc1-c1ccccc1 ?
y

Write down the call the test reported for this molecule. Item: CC(C)NC(=O)N1CC(=O)N(c2cc(Cl)cc(Cl)c2)C1=O
n

GET /call?item= CCNC(=O)NC(=O)C(C#N)=NOC returns the recorded outcome of this test.
n

Please share the test call associated with CC1(C)CCC(=Cc2ccc(Cl)cc2)C1(O)Cn1cncn1 (stereo not given) .
n

// outcome(item) with item = CCOc1nc(C(Cl)(Cl)Cl)ns1
n

Hi, do you know how CCNP(=S)(OC)O/C(C)=C/C(=O)OC(C)C (stereo not given) came out in this test?
n

Record request — test call for COCC(=O)N(c1c(C)cccc1C)C(C)C(=O)OC (stereo not given)
n

In this assay, the call recorded for CCOP(=S)(OCC)Oc1nc(Cl)n(C(C)C)n1 was what?
n

Hi, do you know how CCOC(=O)C(C)OC(=O)c1cc(Oc2ccc(C(F)(F)F)cc2Cl)ccc1[N+](=O)[O-] (stereo not given) came out in this test?
n

GET /call?item= CCCC(=NOCC)C1=C(O)CC(CC(C)SCC)CC1=O (stereo not given) returns the recorded outcome of this test.
n

Outcome? CC(C)Nc1nc(Cl)nc(NC(C)C)n1
n

Look up the recorded call for Nc1c(Cl)c(Cl)nc(C(=O)O)c1Cl in this test.
n

Please indicate how the test categorized Cc1cc(C)nc(Nc2ccccc2)n1 .
n

Please indicate how the test categorized CC1(C)CON(Cc2ccccc2Cl)C1=O .
n

I'd appreciate the recorded outcome for Cc1nc(N(C)C)nc(OC(=O)N(C)C)c1C from this test.
n

Dear colleague, could you share the recorded outcome for CC(C)=CC1C(C(=O)OCc2coc(Cc3ccccc3)c2)C1(C)C (stereo not given) when you have a moment?
n

---

- Read-out: DNA damage-inducible transcript 3 (DDIT3), DDIT3 (gene 1649)
- method.notes: LTEA_HepaRG_DDIT3: Life Technologies and Expression Analysis (LTEA) Assay for DNA damage-inducible transcript 3 (DDIT3) using HepaRG (AID 2283488)
- setup.conditions: mRNA level, 48 h; actives raise or lower the signal
Calls of active or inactive are those of the source. How the source made its calls: active means hit-call score of the fitted dose curve at least 0.9, where 1 is the maximum; inactive means score below 0.9.
Respond using exactly one of the listed classes: yes for active, no for inactive

Write down the call the test reported for this compound. Item: CNC(=O)N(C)c1nnc(C(C)(C)C)s1
no

Recorded call for COP(=O)(OC)O/C(C)=C/C(=O)N(C)C ?
no

Assay outcome for COc1cc(OC)nc(NC(=O)NS(=O)(=O)c2ncccc2OCC(F)(F)F)n1 : what was it?
no

Assay outcome for C=CCOC(=O)C(C)(C)OC(=O)c1cc(-n2c(=O)cc(C(F)(F)F)n(C)c2=O)ccc1Cl : what was it?
no

For CC(C)N1C(=O)c2ccccc2NS1(=O)=O , what call appears in the results of this test?
no

Outcome? CC(C)=CC1C(C(=O)OCc2coc(Cc3ccccc3)c2)C1(C)C (configuration not stated)
no

Outcome logged for CCCCC(O)(Cn1cncn1)c1ccc(Cl)cc1Cl (configuration not stated) in this assay:
yes

For CCCC(=NOCC)C1=C(O)CC(CC(C)SCC)CC1=O (configuration not stated) , which call appears in the assay record?
no

So what was the verdict on O=c1n(Cl)c(=O)n(Cl)c(=O)n1Cl in this test?
no

Call for entry CO/N=C(/C1=NOCCO1)c1ccccc1Oc1ncnc(Oc2ccccc2Cl)c1F :
yes

# outcome recorded in this test, key = CC(C)(C)C(=O)C(Oc1ccc(Cl)cc1)n1cncn1 (configuration not stated)
no

Which outcome was entered for the compound CN=C=S in this test?
no

---

- Read-out: Urokinase-type plasminogen activator receptor (uPAR), PLAUR (gene 5329)
- method.notes: BSK_BE3C_uPAR: BioMAP Diversity Plus: BE3C Assay for Urokinase-type plasminogen activator receptor (uPAR) Biomarker Activity (AID 2283039)
- setup.conditions: primary human bronchial epithelial cells; actives raise or lower the signal
Activity calls are given as the source filed them. How the source made its calls: active means hit-call score of the fitted dose curve at least 0.9, where 1 is the maximum; inactive means score below 0.9.
In this exercise, the only acceptable responses are yes (1) for active, no (0) for inactive

Solved cases (10 shown):
# lookup: test call for Cc1ccc(N=CN(C)C=Nc2ccc(C)cc2C)c(C)c1
no (0)

Could you please tell me the result logged for CC1(C)C(C(=O)OC(C#N)c2cccc(Oc3ccccc3)c2)C1(C)C (centres undefined) in this assay?
no (0)

Recorded test call requested for CCOC(=O)C(C)OC(=O)c1cc(Oc2ccc(C(F)(F)F)cc2Cl)ccc1[N+](=O)[O-] (centres undefined)
no (0)

Given Cc1cc(C)nc(Nc2ccccc2)n1 , state the outcome it received in this test.
no (0)

Hi, do you know how CS(=O)(=O)c1cc(C(F)(F)F)ccc1C(=O)c1cnoc1C1CC1 came out in this test?
no (0)

# fetch the recorded call for Cc1c(COC(=O)[C@@H]2[C@H](/C=C(\Cl)C(F)(F)F)C2(C)C)cccc1-c1ccccc1 here
no (0)

What was the test verdict on CC1(C)C(C=C(Cl)Cl)C1C(=O)OC(C#N)c1cccc(Oc2ccccc2)c1 (centres undefined) ?
no (0)

Query: recorded result category for Clc1nc(Cl)nc(Nc2ccccc2Cl)n1 in this test
yes (1)

I'd appreciate the recorded outcome for COC(=O)NS(=O)(=O)c1ccc(N)cc1 from this test.
no (0)

Recorded call for CCCCOCN(C(=O)CCl)c1c(CC)cccc1CC ?
yes (1)

---
Which outcome did this test record for the compound CCN(CC)C(=O)C(C)Oc1cccc2ccccc12 (centres undefined) ?
no (0)

# fetch the recorded call for COC(=O)NC(=S)Nc1ccccc1NC(=S)NC(=O)OC here
yes (1)

Would you mind telling me which call this test gave N#Cc1c[nH]cc1-c1cccc2c1OC(F)(F)O2 ?
no (0)

Outcome logged for CSC(=O)c1c(C(F)F)nc(C(F)(F)F)c(C(=O)SC)c1CC(C)C in this assay:
no (0)

All values here come from PubChem BioAssay (EPA / NIEHS).
